Entries and their measured Ht follow.
- Species: Rattus norvegicus
- Assay: Open TG-GATES - Regimen: Single
- Assay type: toxicity, organism-based, Sprague-Dawley
- Parameters: regimen Single, gender Male, age 6 weeks
- Conditions Used: in vivo, po, 0 mg/kg, 6 h, tissue Blood, route gavage, dose level Control

# Molecule, Ht / %
measured = [
    ("Nc1c2c(nc3ccccc13)CCCC2 [TACRINE]", 38.6),
    ("CN/C(=N/CCSCc1nc[nH]c1C)NC#N [CIMETIDINE]", 37.8),
    ("CCCc1cc(=O)[nH]c(=S)[nH]1 [PROPYLTHIOURACIL]", 39.3),
    ("CN(C)CCC(c1ccc(Cl)cc1)c1ccccn1 (stereo not drawn) [CHLORPHENIRAMINE]", 40.3),
    ("COC(=O)C1=C(C)NC(C)=C(C(=O)OC)C1c1ccccc1[N+](=O)[O-] [NIFEDIPINE]", 42.2),
    ("CCOc1ccc(NC(C)=O)cc1 [PHENACETIN]", 40.8),
    ("Brc1ccccc1 [BROMOBENZENE]", 39.1),
    ("CNC(=C[N+](=O)[O-])NCCSCc1ccc(CN(C)C)o1 [RANITIDINE]", 38.7),
    ("O=C(OC[C@H]1O[C@@H](OC(=O)c2cc(O)c(O)c(OC(=O)c3cc(O)c(O)c(O)c3)c2)[C@H](OC(=O)c2cc(O)c(O)c(OC(=O)c3cc(O)c(O)c(O)c3)c2)[C@@H](OC(=O)c2cc(O)c(O)c(OC(=O)c3cc(O)c(O)c(O)c3)c2)[C@@H]1OC(=O)c1cc(O)c(O)c(OC(=O)c2cc(O)c(O)c(O)c2)c1)c1cc(O)c(O)c(OC(=O)c2cc(O)c(O)c(O)c2)c1 [TANNIC ACID]", 39.1),
    ("CC(C)NNC(=O)c1ccncc1 [IPRONIAZID]", 38.6),
    ("NC1=NC(=O)C(c2ccccc2)O1 (stereo not drawn) [PEMOLINE]", 39.1),
    ("CN1C(=O)CCS(=O)(=O)C1c1ccc(Cl)cc1 (stereo not drawn) [CHLORMEZANONE]", 40.5),
    ("Cc1nnc2n1-c1ccc(Cl)cc1C(c1ccccc1Cl)=NC2 [TRIAZOLAM]", 41.3),
]
